Recorded viability, T/C by entry
- Tested on: 422866-222-R5-J1-PDC complex spheroids viability
- procedure details: Anticancer human tumor 422866-222-R5-J1-PDC patient-derived pancreatic adenocarcinoma cell line growth inhibition [RAS]
- test settings: second compound 0.00316 µM; first compound 0.316 µM; stronger effect = lower value
Give the value in % but do not write % after it.

Exercise: Fill in viability, T/C for record CCN1CCN(Cc2ccc(Nc3ncc(F)c(-c4cc(F)c5nc(C)n(C(C)C)c5c4)n3)nc2)CC1 + C=CC(=O)N1CCN(c2nc(OCC3CCCN3C)nc3c(F)c(-c4nc(N)cc(C)c4C(F)(F)F)c(Cl)cc23)C(C)C1
Solution: 31.8

Exercise: Fill in viability, T/C for record CC(=O)OC12COC1CC(O)C1(C)C(=O)C(O)C3=C(C)C(OC(=O)C(O)C(NC(=O)OC(C)(C)C)c4ccccc4)CC(O)(C(OC(=O)c4ccccc4)C21)C3(C)C (stereo unspecified) + C=CC(=O)N1CCN(c2nc(OCC3CCCN3C)nc3c(F)c(-c4nc(N)cc(C)c4C(F)(F)F)c(Cl)cc23)C(C)C1
Solution: 26.7

Exercise: Fill in viability, T/C for record CCC(CC)c1cc(NC2CCC(N)C2)n2nccc2n1 (stereo unspecified) + C=CC(=O)N1CCN(c2nc(OCC3CCCN3C)nc3c(F)c(-c4nc(N)cc(C)c4C(F)(F)F)c(Cl)cc23)C(C)C1
Solution: 32.8

----------
- System: 422866-222-R5-J1-PDC complex spheroids viability
- procedure details: Anticancer human tumor 422866-222-R5-J1-PDC cell line growth inhibition [RAS]; active = viability on the fitted dose curve at most 10% of control; inactive = the rest;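 also: spheroids exposed to compounds for 7 days; 100% = DMSO vehicle control viability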
- test settings: second compound 0.3 µM; first compound 0.0949 µM
Select the correct class. Options are active, inactive and nothing else.

Exercise: I'd appreciate the recorded outcome for CC1(C)CCC(Nc2ncc(C(F)(F)F)c(-c3c[nH]c4c(P(C)(C)=O)c(C#N)ccc34)n2)CN1 (centres undefined) + CCn1c(-c2cc(N3CCN(C)CC3)cnc2C(C)OC)c2c3cc(ccc31)-c1csc(n1)CC(NC(=O)C1CC1C)C(=O)N1CCCC(N1)C(=O)OCC(C)(C)C2 from this test.
Solution: inactive

Exercise: I'd appreciate the recorded outcome for CC1(C)CCC(Nc2ncc(C(F)(F)F)c(-c3c[nH]c4c(P(C)(C)=O)c(C#N)ccc34)n2)CN1 (centres undefined) + CCn1c(-c2cccnc2C(C)OC)c2c3cc(ccc31)N1CCOC(CC(NC(=O)C(C(C)C)N(C)C(=O)C3(F)CCN(C(=O)C#CC(C)(C)N(C)C)CC3)C(=O)N3CCCC(N3)C(=O)OCC(C)(C)C2)C1 from this test.
Solution: inactive

Exercise: I'd appreciate the recorded outcome for CCc1c2c(nc3ccc(O)cc13)-c1cc3c(c(=O)n1C2)COC(=O)[C@]3(O)CC + CCn1c(-c2cc(N3CCN(C)CC3)cnc2C(C)OC)c2c3cc(ccc31)-c1csc(n1)CC(NC(=O)C1CC1C)C(=O)N1CCCC(N1)C(=O)OCC(C)(C)C2 from this test.
Solution: active

# input for lookup
Exercise: I'd appreciate the recorded outcome for CCc1c2c(nc3ccc(O)cc13)-c1cc3c(c(=O)n1C2)COC(=O)[C@]3(O)CC + CCn1c(-c2cccnc2C(C)OC)c2c3cc(ccc31)N1CCOC(CC(NC(=O)C(C(C)C)N(C)C(=O)C3(F)CCN(C(=O)C#CC(C)(C)N(C)C)CC3)C(=O)N3CCCC(N3)C(=O)OCC(C)(C)C2)C1 from this test.
Solution: active

----------
- System: 422866-222-R5-J1-PDC complex spheroids viability
- procedure details: Anticancer human tumor 422866-222-R5-J1-PDC cell line growth inhibition [RAS];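 also: spheroids exposed to compounds for 7 days; 100% = DMSO vehicle control viability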
- test settings: second compound 0.01 µM; first compound 3.16 µM; stronger effect = lower value
Recorded viability, T/C by entry
Give the value in % but do not write % after it.

Exercise: Name the value of viability, T/C reported for CC(C)NCC(C(=O)N1CCN(c2ncnc3c2C(C)CC3O)CC1)c1ccc(Cl)cc1 (centres undefined) + C=CC(=O)N1CCN(c2nc(OCC3CCCN3C)nc3c(F)c(-c4nc(N)cc(C)c4C(F)(F)F)c(Cl)cc23)C(C)C1 when tested on 422866-222-R5-J1-PDC complex spheroids viability.
Solution: 12.6

More entries:
Exercise: Name the value of viability, T/C reported for NC1c2ccccc2OC12CCN(c1cnc3c(N4CCCc5ncccc54)n[nH]c3n1)CC2 (centres undefined) + C=CC(=O)N1CCN(c2nc(OCC3CCCN3C)nc3c(F)c(-c4nc(N)cc(C)c4C(F)(F)F)c(Cl)cc23)C(C)C1 when tested on 422866-222-R5-J1-PDC complex spheroids viability.
Solution: 15.4

Exercise: Name the value of viability, T/C reported for CC(=O)OC12COC1CC(O)C1(C)C(=O)C(O)C3=C(C)C(OC(=O)C(O)C(NC(=O)OC(C)(C)C)c4ccccc4)CC(O)(C(OC(=O)c4ccccc4)C21)C3(C)C (centres undefined) + C=CC(=O)N1CCN(c2nc(OCC3CCCN3C)nc3c(F)c(-c4nc(N)cc(C)c4C(F)(F)F)c(Cl)cc23)C(C)C1 when tested on 422866-222-R5-J1-PDC complex spheroids viability.
Solution: 20.4

Exercise: Name the value of viability, T/C reported for CC1(O)CCCC1n1c(=O)c(C(F)F)cc2cnc(NC3CCN(S(C)(=O)=O)CC3)nc21 (centres undefined) + C=CC(=O)N1CCN(c2nc(OCC3CCCN3C)nc3c(F)c(-c4nc(N)cc(C)c4C(F)(F)F)c(Cl)cc23)C(C)C1 when tested on 422866-222-R5-J1-PDC complex spheroids viability.
Solution: 30.3

----------
- Tested on: 422866-222-R5-J1-PDC complex spheroids viability
- procedure details: Anticancer human tumor 422866-222-R5-J1-PDC cell line growth inhibition [RAS];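 also: spheroids exposed to compounds for 7 days; 100% = DMSO vehicle control viability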
- test settings: second compound 0.3 µM; first compound 0.000949 µM; stronger effect = lower value
measured property: viability, T/C

Some solved entries appear below for comparison.
Exercise: Fill in viability, T/C for record CCc1c2c(nc3ccc(O)cc13)-c1cc3c(c(=O)n1C2)COC(=O)[C@]3(O)CC + CCn1c(-c2cccnc2C(C)OC)c2c3cc(ccc31)N1CCOC(CC(NC(=O)C(C(C)C)N(C)C(=O)C3(F)CCN(C(=O)C#CC(C)(C)N(C)C)CC3)C(=O)N3CCCC(N3)C(=O)OCC(C)(C)C2)C1
Solution: 13.9%

Exercise: Fill in viability, T/C for record CCc1c2c(nc3ccc(O)cc13)-c1cc3c(c(=O)n1C2)COC(=O)[C@]3(O)CC + CCn1c(-c2cc(N3CCN(C)CC3)cnc2C(C)OC)c2c3cc(ccc31)-c1csc(n1)CC(NC(=O)C1CC1C)C(=O)N1CCCC(N1)C(=O)OCC(C)(C)C2
Solution: 16.2%

Exercise: Fill in viability, T/C for record CC1(C)CCC(Nc2ncc(C(F)(F)F)c(-c3c[nH]c4c(P(C)(C)=O)c(C#N)ccc34)n2)CN1 (centres undefined) + CCn1c(-c2cccnc2C(C)OC)c2c3cc(ccc31)N1CCOC(CC(NC(=O)C(C(C)C)N(C)C(=O)C3(F)CCN(C(=O)C#CC(C)(C)N(C)C)CC3)C(=O)N3CCCC(N3)C(=O)OCC(C)(C)C2)C1
Solution: 20%

Okay, next one:
Exercise: Fill in viability, T/C for record CC1(C)CCC(Nc2ncc(C(F)(F)F)c(-c3c[nH]c4c(P(C)(C)=O)c(C#N)ccc34)n2)CN1 (centres undefined) + CCn1c(-c2cc(N3CCN(C)CC3)cnc2C(C)OC)c2c3cc(ccc31)-c1csc(n1)CC(NC(=O)C1CC1C)C(=O)N1CCCC(N1)C(=O)OCC(C)(C)C2
Solution: 19.7%

----------
- Tested on: 422866-222-R5-J1-PDC complex spheroids viability
- procedure details: Anticancer human tumor 422866-222-R5-J1-PDC cell line growth inhibition [RAS];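 also: spheroids exposed to compounds for 7 days; 100% = DMSO vehicle control viability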
- test settings: second compound 3.16 µM; first compound 0.0316 µM; stronger effect = lower value
measured property: viability, T/C (%)
Give the value in % but do not write % after it.

Some solved entries appear below for comparison.
Exercise: Name the value of viability, T/C reported for CCN1CCN(Cc2ccc(Nc3ncc(F)c(-c4cc(F)c5nc(C)n(C(C)C)c5c4)n3)nc2)CC1 + C#Cc1c(F)ccc2cc(O)cc(-c3ncc4c(N5CC6CCC(C5)N6)nc(OCC56CCCN5CC(F)C6)nc4c3F)c12 when tested on 422866-222-R5-J1-PDC complex spheroids viability.
Solution: 27.7

Exercise: Name the value of viability, T/C reported for C=CC(=O)N1CCN(c2nc(OCC3CCCN3C)nc3c(F)c(-c4nc(N)cc(C)c4C(F)(F)F)c(Cl)cc23)C(C)C1 (stereo not given) + C#Cc1c(F)ccc2cc(O)cc(-c3ncc4c(N5CC6CCC(C5)N6)nc(OCC56CCCN5CC(F)C6)nc4c3F)c12 when tested on 422866-222-R5-J1-PDC complex spheroids viability.
Solution: 21

Exercise: Name the value of viability, T/C reported for CC(C)n1nc(-c2ccc3oc(N)nc3c2)c2c(N)ncnc21 + C#Cc1c(F)ccc2cc(O)cc(-c3ncc4c(N5CC6CCC(C5)N6)nc(OCC56CCCN5CC(F)C6)nc4c3F)c12 when tested on 422866-222-R5-J1-PDC complex spheroids viability.
Solution: 20.9

More entries:
Exercise: Name the value of viability, T/C reported for Nc1ccn(C2OC(CO)C(O)C2(F)F)c(=O)n1 (stereo not given) + C#Cc1c(F)ccc2cc(O)cc(-c3ncc4c(N5CC6CCC(C5)N6)nc(OCC56CCCN5CC(F)C6)nc4c3F)c12 when tested on 422866-222-R5-J1-PDC complex spheroids viability.
Solution: 24.5

Exercise: Name the value of viability, T/C reported for NC1c2ccccc2OC12CCN(c1cnc3c(N4CCCc5ncccc54)n[nH]c3n1)CC2 (stereo not given) + C#Cc1c(F)ccc2cc(O)cc(-c3ncc4c(N5CC6CCC(C5)N6)nc(OCC56CCCN5CC(F)C6)nc4c3F)c12 when tested on 422866-222-R5-J1-PDC complex spheroids viability.
Solution: 17.8

Reference for the values: PubChem BioAssay AID2060901
